Taken from patent US5326751A.

Entries and their IC50
# STUDY SYSTEM: mu-type opioid receptors (Rattus norvegicus)
# Construct: Whole brains with cerebellum removed were homogenized in 100 volumes of Tris-HCl buffer; from tissue; host or cells: rat brain (without cerebellum), washed homogenate
# Sequence (P33535 whole entry): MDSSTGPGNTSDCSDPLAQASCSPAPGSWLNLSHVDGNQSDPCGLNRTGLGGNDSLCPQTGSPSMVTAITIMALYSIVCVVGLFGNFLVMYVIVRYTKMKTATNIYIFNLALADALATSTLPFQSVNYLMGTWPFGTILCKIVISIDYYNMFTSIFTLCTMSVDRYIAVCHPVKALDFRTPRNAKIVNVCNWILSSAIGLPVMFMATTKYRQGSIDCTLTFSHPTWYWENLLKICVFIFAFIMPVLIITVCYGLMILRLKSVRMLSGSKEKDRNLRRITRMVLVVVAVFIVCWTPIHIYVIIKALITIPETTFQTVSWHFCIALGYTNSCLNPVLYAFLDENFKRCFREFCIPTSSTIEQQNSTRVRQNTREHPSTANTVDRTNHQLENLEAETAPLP
# PROTOCOL SUMMARY: displacement of [3H]CTOP in rat brain homogenate
# Assay type: binding
# TEST PARAMETERS: 25° C., read-out: IC50 (nM) ± S.E.E. [3H] CTOP
Bridge positions count the residues as written; N and C are the ends. Square brackets hold non-standard residues; d marks the D form. Peptide text beside a SMILES is read from it. dPen = CC(C)(S)[C@@H](N)C(=O)O; dAbu = CC[C@@H](N)C(=O)O

The examples below pair each entry with its known result.
[[record]]
compound = "CC1(C)SSC(C)(C)[C@@H](NC(=O)[C@@H](N)Cc2ccc(O)cc2)C(=O)N[C@@H](CO)C(=O)N[C@@H](Cc2ccccc2)C(=O)N[C@H]1C(=O)O [[L--Ser^3]DPDPE] (H-Y[dPen]SF[dPen]-OH; disulfide 2-5)"
measured_result = "> 22500 nM"

[[record]]
compound = "C[C@H]1NC(=O)[C@H](NC(=O)[C@@H](N)Cc2ccc(O)cc2)C(C)(C)SSC(C)(C)[C@H](C(=O)O)NC(=O)[C@H](Cc2ccccc2)NC1=O [[D--Ala^3]DPDPE] (H-Y[dPen][dA]F[dPen]-OH; disulfide 2-5)"
measured_result = "> 35000 nM"


Alright, here's another compound for you.
Q. IC50 for CC[C@H]1NC(=O)[C@H](NC(=O)[C@@H](N)Cc2ccc(O)cc2)C(C)(C)SSC(C)(C)[C@H](C(=O)O)NC(=O)[C@H](Cc2ccccc2)NC1=O [[D--Abu^3]DPDPE] (H-Y[dPen][dAbu]F[dPen]-OH; disulfide 2-5) ?
A. > 50000 nM
